Percent Effect overview
assayedSystem: Tyrosyl-tRNA synthetase, putative (Trypanosoma cruzi (strain CL Brener))
Sequence (whole entry): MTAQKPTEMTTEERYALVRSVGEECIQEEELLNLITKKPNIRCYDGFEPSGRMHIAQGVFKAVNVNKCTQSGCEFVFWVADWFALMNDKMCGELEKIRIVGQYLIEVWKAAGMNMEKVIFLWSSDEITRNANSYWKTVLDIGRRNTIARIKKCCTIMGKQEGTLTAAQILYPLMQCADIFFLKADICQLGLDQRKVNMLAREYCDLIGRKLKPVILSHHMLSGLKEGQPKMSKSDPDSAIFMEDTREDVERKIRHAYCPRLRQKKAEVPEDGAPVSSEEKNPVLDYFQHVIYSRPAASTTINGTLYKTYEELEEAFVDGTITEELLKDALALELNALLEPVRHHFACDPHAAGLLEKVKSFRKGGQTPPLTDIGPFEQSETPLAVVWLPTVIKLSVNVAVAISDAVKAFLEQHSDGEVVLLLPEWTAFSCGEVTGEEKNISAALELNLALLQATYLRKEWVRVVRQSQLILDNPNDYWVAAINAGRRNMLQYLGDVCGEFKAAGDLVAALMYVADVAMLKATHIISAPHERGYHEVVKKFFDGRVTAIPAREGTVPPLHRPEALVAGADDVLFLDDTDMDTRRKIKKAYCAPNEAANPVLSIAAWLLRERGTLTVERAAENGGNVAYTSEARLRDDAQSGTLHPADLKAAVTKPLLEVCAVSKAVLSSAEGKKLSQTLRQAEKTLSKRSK
experimentNotes: Trypanosoma cruzi tyrosyl tRNA synthetase (TcYRS) SOP
Type: functional
Parameters: scale not given: direction of the effect not stated beside the values
measurementContext: 30 µM
Provide the reading as a plain figure in %.

O=C(CCc1nccs1)N1CCC(N2CCNC2=O)CC1	12.5
COc1cc(C)nc(N2CCN(C(=O)c3ccccc3C)CC2)n1	18.5
CN(Cc1cnn(C)c1)C(=O)c1ccc(=O)n(C)n1	10.4

Q) Which Percent Effect is listed for "Cc1cc(CN2CCN(C(=O)NCc3ccc(C)s3)CC2)no1" ?
A) 21.5

Q) Which Percent Effect is listed for "CC(C)NC(=O)CS(=O)(=O)Cc1cc(Cl)c2c(c1)OCCO2" ?
A) 24.1

Q) Which Percent Effect is listed for NC(=O)c1ccc(S(=O)(=O)NC2CCN(Cc3ccccc3)C2=O)cc1 (configuration not stated) ?
A) 11.4

* * *

assayedSystem: Sialic acid-binding Ig-like lectin 9 (Homo sapiens)
experimentNotes: Hs-Siglec9 ALPHAscreen SOP 20170721
Parameters: scale not given: direction of the effect not stated beside the values
measurementContext: 10 µM
Decision: Percent Effect >= 10% yields Yes, all other cases yield No.

CNC(=O)NC(=O)CN1CCC(c2cccc(F)c2)C1 (stereo not given)	No
CCN(Cc1nc2c(cnn2C)c(=O)[nH]1)c1cccc(Cl)c1	No
CC(C)n1ccnc1CN1CCCN(C(=O)COC2CCCC2)CC1	No
Cc1cnc(CNC(=O)NCc2cccnc2N(C)C)s1	Yes
Cc1ccccc1CS(=O)(=O)CC(=O)NCc1ccccc1F	No
CCCS(=O)(=O)N1CCC(NC(=O)c2cc(C)c(CC)s2)CC1	Yes
Cc1oc(C(=O)O)cc1S(=O)(=O)Nc1ccc(Cl)c(F)c1	No
CC(C)C1CN(C(=O)c2ccc(C(N)=O)cc2)CCS1 (stereo not given)	No

Q) Can "O=C(NCCn1ccc(-c2ccccn2)n1)C1CC1" be said to have Percent Effect at or above 10%?
A) No

Q) Can COc1cc(OC)c(C2Nc3cc(Cl)ccc3C3=NCCN32)cc1OC (stereo not given) be said to have Percent Effect at or above 10%?
A) No

Q) Can "Cc1ccc(C(=O)N(C)Cc2cscn2)c(=O)[nH]1" be said to have Percent Effect at or above 10%?
A) No

This collection of values is drawn from ChEMBL document CHEMBL3988442.
